System: 72 kDa type IV collagenase (Homo sapiens) | Read-out: pIC50
Sequence (P08253 whole entry): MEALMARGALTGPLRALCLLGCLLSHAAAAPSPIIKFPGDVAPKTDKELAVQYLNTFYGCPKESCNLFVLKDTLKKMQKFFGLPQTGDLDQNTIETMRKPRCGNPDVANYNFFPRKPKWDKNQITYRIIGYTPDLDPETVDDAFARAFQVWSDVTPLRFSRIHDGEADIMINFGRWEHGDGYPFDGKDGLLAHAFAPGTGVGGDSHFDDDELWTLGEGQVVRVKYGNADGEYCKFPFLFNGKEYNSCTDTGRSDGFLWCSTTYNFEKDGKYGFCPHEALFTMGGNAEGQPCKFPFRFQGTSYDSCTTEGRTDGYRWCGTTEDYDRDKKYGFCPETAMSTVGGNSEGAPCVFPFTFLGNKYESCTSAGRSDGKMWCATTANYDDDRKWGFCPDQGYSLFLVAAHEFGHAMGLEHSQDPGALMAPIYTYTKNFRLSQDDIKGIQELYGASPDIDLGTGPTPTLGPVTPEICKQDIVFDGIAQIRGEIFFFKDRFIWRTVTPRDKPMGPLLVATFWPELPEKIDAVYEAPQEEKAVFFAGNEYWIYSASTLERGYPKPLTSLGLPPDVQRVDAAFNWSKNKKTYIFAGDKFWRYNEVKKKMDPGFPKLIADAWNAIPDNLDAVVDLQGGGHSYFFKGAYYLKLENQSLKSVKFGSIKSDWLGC
pIC50: −log10 of the molar value.
reported-endpoint: pIC50

                                    compound  readout_qualifier  reported_result
 0  NCCCCCNC(=O)CC1CN[C@H](C(=O)N2CCC(c3ccccc3)C2)[C@@H](C(=O)NO)C1 (mixture of isomers)                  =             5.78
 1  O=C(NO)[C@H]1C[C@H](CC(=O)N2CCCCC2)CC[C@@H]1C(=O)N1CCN(c2ccccc2)CC1                  =             5.96
 2  O=C(NO)[C@H]1CC2(CC[C@@H]1C(=O)N1CCN(c3ccccc3)CC1)CC2 (mixture of isomers)                  =             6.97
 3  CN1CCN(C(=O)CC2CC[C@H](C(=O)N3CCN(c4ccccc4)CC3)[C@@H](C(=O)NO)C2)CC1 (mixture of isomers)                  =             7.17
 4  O=C(NO)[C@H]1C[C@@H](CC(=O)N2CCCCC2)CC[C@@H]1C(=O)N1CCN(c2ccccc2)CC1                  =             7.00
 5  O=C(NO)[C@H]1CC(CC(=O)N2CCCC2)CN[C@@H]1C(=O)N1CCN(c2ccccc2)CC1 (mixture of isomers)                  =             8.10
 6  O=C(NO)[C@H]1CCCC[C@@H]1C(=O)N1CCN(c2ccccc2)CC1                  =             6.74
 7  CC(C)c1cccc(C2CCN(C(=O)[C@H]3CC[C@H](CC(=O)N4CCCCC4)C[C@@H]3C(=O)NO)CC2)c1                  <             5.30
 8  O=C(CC1CN[C@H](C(=O)N2CCC(c3ccccc3)C2)[C@@H](C(=O)NO)C1)NCCCCCNC(=O)OCc1ccccc1 (mixture of isomers)                  =             5.89
 9  O=C(NO)[C@H]1CC(CC(=O)N2CC[C@@H](O)C2)CC[C@@H]1C(=O)N1CCN(c2ccccc2)CC1 (mixture of isomers)                  =             6.81
10  O=C(NO)[C@H]1CC(CC(=O)N2CCOCC2)CC[C@@H]1C(=O)N1CCN(c2ccccc2)CC1 (stereo partly specified)                  =             6.63

---

Molecular target: Disintegrin and metalloproteinase domain-containing protein 10 (Homo sapiens, UniProt O14672)
Sequence (O14672 whole entry, the tested form may be a part): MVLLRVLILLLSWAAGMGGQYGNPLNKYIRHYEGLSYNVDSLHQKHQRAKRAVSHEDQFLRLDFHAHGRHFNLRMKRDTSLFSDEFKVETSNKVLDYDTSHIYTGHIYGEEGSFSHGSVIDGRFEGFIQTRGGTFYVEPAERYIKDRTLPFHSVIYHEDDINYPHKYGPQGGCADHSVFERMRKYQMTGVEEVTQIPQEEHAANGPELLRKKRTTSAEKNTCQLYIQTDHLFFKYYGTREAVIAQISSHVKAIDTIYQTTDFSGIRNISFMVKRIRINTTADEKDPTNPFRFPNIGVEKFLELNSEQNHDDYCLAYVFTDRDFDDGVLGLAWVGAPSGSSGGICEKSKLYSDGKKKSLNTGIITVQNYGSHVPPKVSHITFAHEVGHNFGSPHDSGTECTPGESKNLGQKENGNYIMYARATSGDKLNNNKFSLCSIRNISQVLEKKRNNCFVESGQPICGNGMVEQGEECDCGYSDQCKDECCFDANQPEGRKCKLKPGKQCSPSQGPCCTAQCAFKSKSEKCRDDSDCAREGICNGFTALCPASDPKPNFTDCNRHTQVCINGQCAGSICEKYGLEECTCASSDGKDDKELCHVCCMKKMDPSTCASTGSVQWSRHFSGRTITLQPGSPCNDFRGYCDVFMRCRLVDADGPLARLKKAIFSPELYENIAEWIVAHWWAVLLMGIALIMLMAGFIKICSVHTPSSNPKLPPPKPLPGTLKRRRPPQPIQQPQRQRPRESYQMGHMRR
Assay: Inhibition of human recombinant ADAM10
pIC50: −log10 of the molar value.
reported-endpoint: pIC50

                                    compound  reported_result
 0  CN1CC(CC(=O)N2CCCC2)C[C@H](C(=O)NO)[C@H]1C(=O)N1CCN(c2ccccc2)CC1 (mixture of isomers)             6.78
 1  O=C(CC1CN[C@H](C(=O)N2CCC(c3ccccc3)C2)[C@@H](C(=O)NO)C1)NCCCCCNC(=O)OCc1ccccc1 (mixture of isomers)             6.52
 2  NCCCCCNC(=O)CC1CN[C@H](C(=O)N2CCC(c3ccccc3)C2)[C@@H](C(=O)NO)C1 (mixture of isomers)             6.79
 3  O=C(NO)[C@H]1CC(CC(=O)N2CC[C@@H](O)C2)CC[C@@H]1C(=O)N1CCN(c2ccccc2)CC1 (mixture of isomers)             6.95
 4  O=C(NO)[C@H]1CC(CC(=O)N2CCCC2)CN[C@@H]1C(=O)N1CCN(c2ccccc2)CC1 (mixture of isomers)             7.72
 5  O=C(NO)[C@H]1CC(CC(=O)N2CCOCC2)CC[C@@H]1C(=O)N1CCN(c2ccccc2)CC1 (some centres undefined)             7.08
 6  CN1CC(CC(=O)N2CCCCC2)C[C@H](C(=O)NO)[C@H]1C(=O)N1CCN(c2ccccc2)CC1 (mixture of isomers)             7.11
 7  CC(C)c1cccc(C2CCN(C(=O)[C@H]3CC[C@@H](CC(=O)N4CCCCC4)C[C@@H]3C(=O)NO)CC2)c1             6.04
 8  O=C(NO)[C@H]1CC2(CC[C@@H]1C(=O)N1CCN(c3ccccc3)CC1)CC2 (mixture of isomers)             6.71
 9  O=C(NO)[C@H]1CCCC[C@@H]1C(=O)N1CCN(c2ccccc2)CC1             5.81
10  CC(C)c1cccc(C2CCN(C(=O)[C@H]3CC[C@H](CC(=O)N4CCCCC4)C[C@@H]3C(=O)NO)CC2)c1             7.68
11  O=C(NO)[C@H]1CC(CC(=O)N2CCCC2)CC[C@@H]1C(=O)N1CCN(c2ccccc2)CC1 (mixture of isomers)             7.19
12  O=C(NO)[C@H]1C[C@@H](CC(=O)N2CCCCC2)CC[C@@H]1C(=O)N1CCN(c2ccccc2)CC1             7.82
13  CN1CCN(C(=O)CC2CC[C@H](C(=O)N3CCN(c4ccccc4)CC3)[C@@H](C(=O)NO)C2)CC1 (mixture of isomers)             7.52

---

Measured pIC50 accompanies every entry in the list below.
Target: Stromelysin-1 (Homo sapiens, UniProt P08254)
Sequence (P08254 whole entry): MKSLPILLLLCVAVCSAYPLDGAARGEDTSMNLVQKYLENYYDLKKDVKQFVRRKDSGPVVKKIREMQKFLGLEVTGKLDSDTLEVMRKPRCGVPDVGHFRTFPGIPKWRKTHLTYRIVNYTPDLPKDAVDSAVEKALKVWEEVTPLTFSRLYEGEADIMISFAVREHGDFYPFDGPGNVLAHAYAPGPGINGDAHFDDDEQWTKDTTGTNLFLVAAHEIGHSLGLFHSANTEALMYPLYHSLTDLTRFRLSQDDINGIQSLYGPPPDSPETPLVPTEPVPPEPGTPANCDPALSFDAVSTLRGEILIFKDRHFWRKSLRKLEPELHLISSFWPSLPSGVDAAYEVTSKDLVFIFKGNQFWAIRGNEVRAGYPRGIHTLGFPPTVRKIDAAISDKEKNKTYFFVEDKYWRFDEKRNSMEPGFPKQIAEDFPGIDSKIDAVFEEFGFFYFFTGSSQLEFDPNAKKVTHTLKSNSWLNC
pIC50: −log10 of the molar value.
reported-endpoint: pIC50

                                   compound  reported_endpoint  reported_result
0  NCCCCCNC(=O)CC1CN[C@H](C(=O)N2CCC(c3ccccc3)C2)[C@@H](C(=O)NO)C1 (mixture of isomers)              pIC50           < 5.30
1  O=C(NO)[C@H]1CC2(CC2)CN[C@@H]1C(=O)N1CCC(c2ccccc2)C1 (stereo not given in full)              pIC50           < 5.30
2  O=C(NO)[C@H]1CC(CC(=O)N2CCCC2)CC[C@@H]1C(=O)N1CCN(c2ccccc2)CC1 (mixture of isomers)              pIC50           < 5.30
3  O=C(CC1CN[C@H](C(=O)N2CCC(c3ccccc3)C2)[C@@H](C(=O)NO)C1)NCCCCCNC(=O)OCc1ccccc1 (mixture of isomers)              pIC50             5.30
4  O=C(NO)[C@H]1CC2(CC[C@@H]1C(=O)N1CCN(c3ccccc3)CC1)CC2 (mixture of isomers)              pIC50           < 5.30

---

Target: Interstitial collagenase (Homo sapiens, UniProt P03956)
Sequence (P03956 whole entry): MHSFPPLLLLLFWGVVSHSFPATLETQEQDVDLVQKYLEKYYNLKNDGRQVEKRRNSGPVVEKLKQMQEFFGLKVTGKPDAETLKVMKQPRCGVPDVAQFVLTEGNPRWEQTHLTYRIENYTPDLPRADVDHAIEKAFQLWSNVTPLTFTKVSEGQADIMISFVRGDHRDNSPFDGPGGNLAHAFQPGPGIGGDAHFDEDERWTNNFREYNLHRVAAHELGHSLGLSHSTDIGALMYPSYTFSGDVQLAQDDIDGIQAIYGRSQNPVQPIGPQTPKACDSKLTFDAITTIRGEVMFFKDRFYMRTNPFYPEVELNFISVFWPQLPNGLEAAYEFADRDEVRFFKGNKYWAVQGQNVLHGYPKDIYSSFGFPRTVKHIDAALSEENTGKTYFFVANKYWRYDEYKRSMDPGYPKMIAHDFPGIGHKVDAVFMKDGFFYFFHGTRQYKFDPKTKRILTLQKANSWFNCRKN
pIC50: −log10 of the molar value.
reported-endpoint: pIC50

                                   compound  reported_result
0  CN1CCN(C(=O)CC2CC[C@H](C(=O)N3CCN(c4ccccc4)CC3)[C@@H](C(=O)NO)C2)CC1 (mixture of isomers)           < 5.30

---

Molecular target: UniProtKB P14780
Sequence (P14780 whole entry): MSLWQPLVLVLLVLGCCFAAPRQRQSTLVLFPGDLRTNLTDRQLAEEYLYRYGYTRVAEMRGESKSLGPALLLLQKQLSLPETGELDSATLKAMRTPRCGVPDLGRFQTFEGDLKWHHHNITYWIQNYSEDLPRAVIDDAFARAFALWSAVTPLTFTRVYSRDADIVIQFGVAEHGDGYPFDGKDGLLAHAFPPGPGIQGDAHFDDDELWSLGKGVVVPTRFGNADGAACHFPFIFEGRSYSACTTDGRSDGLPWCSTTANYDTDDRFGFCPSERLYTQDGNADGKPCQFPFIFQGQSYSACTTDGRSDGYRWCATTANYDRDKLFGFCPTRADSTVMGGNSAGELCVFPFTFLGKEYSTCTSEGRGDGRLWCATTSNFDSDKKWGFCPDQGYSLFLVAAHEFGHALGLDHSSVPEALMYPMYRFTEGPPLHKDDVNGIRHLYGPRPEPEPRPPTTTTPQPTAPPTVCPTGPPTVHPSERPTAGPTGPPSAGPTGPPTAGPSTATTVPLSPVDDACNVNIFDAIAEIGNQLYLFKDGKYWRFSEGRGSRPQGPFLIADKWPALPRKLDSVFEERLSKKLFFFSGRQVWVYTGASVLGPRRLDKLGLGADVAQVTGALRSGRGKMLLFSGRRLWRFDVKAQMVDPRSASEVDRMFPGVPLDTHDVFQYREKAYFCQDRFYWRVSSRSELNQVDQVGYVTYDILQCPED
Measured IC50 accompanies every entry in the list below.
reported-endpoint: IC50 (nM)

                                   compound  readout_qualifier  reported_result
0  O=C(NO)[C@H]1CC2(CC[C@@H]1C(=O)N1CCN(c3ccccc3)CC1)CC2 (mixture of isomers)                  =              577
1  CN1CCN(C(=O)CC2CC[C@H](C(=O)N3CCN(c4ccccc4)CC3)[C@@H](C(=O)NO)C2)CC1 (mixture of isomers)                  =             2500
2  O=C(CC1CN[C@H](C(=O)N2CCC(c3ccccc3)C2)[C@@H](C(=O)NO)C1)NCCCCCNC(=O)OCc1ccccc1 (mixture of isomers)                  =             1790
3  NCCCCCNC(=O)CC1CN[C@H](C(=O)N2CCC(c3ccccc3)C2)[C@@H](C(=O)NO)C1 (mixture of isomers)                  >             5000
4  O=C(NO)[C@H]1C[C@@H](CC(=O)N2CCCCC2)CC[C@@H]1C(=O)N1CCN(c2ccccc2)CC1                  =              683

Cited source for all entries: ChEMBL document CHEMBL1136955
